system.tested: RET(KD: 658-1114 G810R) (Homo sapiens, UniProt P07949, G810R)
Construct: 658-1114; expressed in transfected cells; host or cells: 293T.165 (293T cells, generated in-house)
Sequence (P07949 658-1114 G810R): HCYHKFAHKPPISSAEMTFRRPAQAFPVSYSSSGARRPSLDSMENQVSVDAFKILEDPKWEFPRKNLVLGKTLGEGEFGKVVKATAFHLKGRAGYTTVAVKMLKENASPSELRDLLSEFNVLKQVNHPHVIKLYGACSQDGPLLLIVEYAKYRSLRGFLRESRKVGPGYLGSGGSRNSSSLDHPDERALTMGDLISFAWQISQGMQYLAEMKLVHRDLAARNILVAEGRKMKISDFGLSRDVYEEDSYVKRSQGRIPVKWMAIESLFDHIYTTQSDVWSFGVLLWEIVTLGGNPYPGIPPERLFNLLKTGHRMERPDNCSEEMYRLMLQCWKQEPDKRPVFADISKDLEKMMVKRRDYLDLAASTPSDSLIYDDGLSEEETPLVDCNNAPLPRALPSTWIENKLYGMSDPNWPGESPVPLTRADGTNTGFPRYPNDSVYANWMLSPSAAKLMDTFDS
assay.method.text: HiBiT-Degradation, RET G810R degradation assay (Nano-Glo HiBiT Lytic), 293T.165 cells
Type: cell-based
details: 6.0 hours, % remaining protein, read-out: 293T.165 RET(KD: 658-1114 G810R) 6.0 hours (Emax)
Protocol: Dulbecco's modified Eagle medium (DMEM) no-phenol red media and fetal bovine serum (FBS) were purchased from Gibco (Grand Island, NY, USA). […] RET wild-type (WT) and G810R degradation were assessed using the Nano-Glo® HiBiT Lytic assay (Promega, Medison, WI, USA). […] Luminescence signal was measured using an EnVision™ Multimode plate reader (Perkin Elmer, Santa Clara, CA, USA). […]
Provide the reported Emax of each item.

Item under review: CCC1(C(=O)NC2CCC2)CCN(c2ccc(-c3nc(-c4cnn([C@H]5CC[C@H](N6CCC(c7ccc(N[C@H]8CCC(=O)NC8=O)cc7)CC6)CC5)c4)cn4ncc(C#N)c34)cn2)CC1 (single isomer, unassigned) . Reported Emax?
< 30%

Do the same for N#Cc1cnn2cc(-c3cnn([C@H]4CC[C@H](N5CCN(c6c(F)cc(NC7CCC(=O)NC7=O)cc6F)CC5)CC4)c3)nc(-c3ccc(N4CC[C@H](OCc5ccccn5)C4)nc3)c12 (mixture of isomers) please
< 30%

Do the same for CCC1(C(=O)NC(C)C)CCN(c2ccc(-c3nc(-c4cnn(C5CCN(C(=O)CC6(O)CCN(c7ccc(NC8CCC(=O)NC8=O)cc7C(F)F)CC6)CC5)c4)cn4ncc(C#N)c34)cn2)CC1 (stereo not drawn) please
< 50%

Do the same for N#Cc1cnn2cc(-c3cnn(C4CCN(C(=O)CN5CCC(c6ccc(NC7CCC(=O)NC7=O)cc6F)CC5)CC4)c3)nc(-c3ccc(N4CCN(C(=O)Cc5ccc(F)cn5)CC4)nc3)c12 (stereo not drawn) please
< 50%

Do the same for CCC1(NC(=O)C(C)C)CCN(c2ccc(-c3nc(-c4cnn([C@H]5CC[C@@H](N6CCN(c7ccc8c(N9CCC(=O)NC9=O)nn(C)c8c7F)CC6)CC5)c4)cn4ncc(C#N)c34)cn2)CC1 (single isomer, unassigned) please
< 30%

Do the same for `CC(C)NC(=O)C1(C)CCN(c2ccc(-c3cc(-c4cnn([C@H]5CC[C@H](CCN6CCC(c7ccc8c(N9CCC(=O)NC9=O)nn(C)c8c7)CC6)CC5)c4)cn4ncc(C#N)c34)cn2)CC1` please
< 30%

Do the same for N#Cc1cnn2cc(-c3ccc(N4CCN(C(=O)CN5CCC(c6ccc(NC7CCC(=O)NC7=O)cc6F)CC5)CC4)cc3)nc(-c3ccc(N4CCN(C(=O)Cc5ccc(F)cn5)CC4)nc3)c12 (stereo not drawn) please
< 50%

Do the same for CCC1(C(=O)NC(C)(C)C)CCN(c2ccc(-c3nc(-c4cnn(C5CCN(C(=O)CC6(O)CCN(c7ccc(NC8CCC(=O)NC8=O)cc7F)CC6)CC5)c4)cn4ncc(C#N)c34)cn2)CC1 (stereo not drawn) please
< 30%

Do the same for CCC1(C(=O)NC2CCC2)CCN(c2ccc(-c3nc(-c4cnn([C@H]5CC[C@H](N6CCC(c7ccc(NC8CCC(=O)NC8=O)cc7Cl)CC6)CC5)c4)cn4ncc(C#N)c34)cn2)CC1 (single isomer, unassigned) please
< 30%

Do the same for CCC1(C(=O)Nc2ccc(F)cc2)CCN(c2ccc(-c3nc(-c4cnn(C5CCN(C(=O)CC6(O)CCN(c7ccc(NC8CCC(=O)NC8=O)cc7F)CC6)CC5)c4)cn4ncc(C#N)c34)cn2)CC1 (stereo not drawn) please
< 30%

Do the same for CCC1(C(=O)NC(C)C)CCN(c2ccc(-c3nc(-c4cnn(C5CCN(C(=O)CN6C7CCC6CC(c6ccc(NC8CCC(=O)NC8=O)cc6)C7)CC5)c4)cn4ncc(C#N)c34)cn2)CC1 (stereo not drawn) please
< 30%

Do the same for CCC1(C(=O)NC(C)C)CCN(c2ccc(-c3nc(-c4cnn(C5CCN(C(=O)CN6C7CCC6CC(c6ccc(NC8CCC(=O)NC8=O)cc6F)C7)CC5)c4)cn4ncc(C#N)c34)cn2)CC1 (stereo not drawn) please
< 30%

Do the same for CCC1(C(=O)NC(C)C)CCN(c2ccc(-c3cc(-c4cnc(N5CCN(C(=O)CN6CCC(c7ccc(NC8CCC(=O)NC8=O)cc7F)CC6)CC5)nc4)cn4ncc(C#N)c34)cn2)CC1 (stereo not drawn) please
< 50%

Do the same for COc1ccc(CC2(OC)CCN(c3ccc(-c4nc(-c5cnn([C@H]6CC[C@@H](N7CCN(c8ccc(NC9CCC(=O)NC9=O)cc8F)CC7)CC6)c5)cn5ncc(C#N)c45)cn3)CC2)cn1 (single isomer, unassigned) please
< 30%

Do the same for `CCC1(C(=O)NC2CCCC2)CCN(c2ccc(-c3nc(-c4cnn([C@H]5CC[C@H](N6CCC(c7ccc(N[C@H]8CCC(=O)NC8=O)cc7F)CC6)CC5)c4)cn4ncc(C#N)c34)cn2)CC1` please
< 30%

Do the same for N#Cc1cnn2cc(-c3ccc(N4CCN(C(=O)CN5CCC(c6ccc(NC7CCC(=O)NC7=O)cc6F)CC5)CC4)cc3)cc(-c3ccc(N4CCN(Cc5ccccn5)CC4)nc3)c12 (stereo not drawn) please
< 30%

Do the same for Cc1ccnc(C2CCN(c3ccc(-c4nc(-c5cnn(C6CCN(C(=O)CC7(O)CCN(c8ccc(NC9CCC(=O)NC9=O)cc8F)CC7)CC6)c5)cn5ncc(C#N)c45)cn3)CC2)n1 (stereo not drawn) please
< 30%

Do the same for CC(C)NC(=O)C1(C)CCN(c2ccc(-c3cc(-c4ccc(N5CCN(C(=O)CN6CCC(c7ccc(NC8CCC(=O)NC8=O)cc7)CC6)CC5)cc4)cn4ncc(C#N)c34)cn2)CC1 (stereo not drawn) please
< 30%
